Sourced from paper PMC2654417

target: glucocorticoid receptor (GR) (Homo sapiens); experiment: GR-EFC nuclear translocation assay; assay type: cell-based; conditions: maximal activity of the qHTS curve; inactive threshold […] (3σ)
Lab note - cut at 80 for qHTS Max Activity: Fulfilled if strictly below, Not fulfilled if not.

[[record]]
compound = "CCC(=O)[C@@]1(C)[C@H](C)C[C@H]2[C@@H]3CCC4=CC(=O)C=C[C@]4(C)[C@H]3[C@@H](O)C[C@@]21C"
group_label = "Fulfilled"

[[record]]
compound = "CC1(C)O[C@@H]2C[C@H]3[C@@H]4C[C@H](F)C5=CC(=O)CC[C@]5(C)[C@H]4[C@@H](O)C[C@]3(C)[C@]2(C(=O)CO)O1"
group_label = "Not fulfilled"

[[record]]
compound = "C[C@@H]1C[C@@H]2[C@H]3CCC4=CC(=O)C=C[C@]4(C)[C@]3(Cl)[C@@H](O)C[C@@]2(C)[C@@]1(O)C(=O)CO"
group_label = "Not fulfilled"

[[record]]
compound = "C[C@@]12C[C@@H](O)[C@H]3[C@@H](CCC4=CC(=O)CC[C@]43C)[C@H]1CC[C@H]2C(=O)CO [NCGC00015222-01]"
group_label = "Fulfilled"

[[record]]
compound = "CC(=O)OCC(=O)[C@@]12OC(C)(C)O[C@@H]1C[C@H]1[C@@H]3C[C@H](F)C4=CC(=O)C=C[C@]4(C)[C@@]3(F)[C@@H](O)C[C@@]12C"
group_label = "Fulfilled"


Below 80 on qHTS Max Activity? Entry `C[C@]12C=CC(=O)C=C1CC[C@@H]1[C@H]3C[C@@H](O)[C@](O)(C(=O)CO)[C@]3(C)C[C@H](O)[C@]12F`
Not fulfilled

---

Reported qHTS Hill Slope values follow for various compounds
target: glucocorticoid receptor (GR) (Homo sapiens, UniProt P04150); assay: GR-EFC nuclear translocation assay; type: cell-based; settings: Hill slope of the qHTS curve fit
Sequence (P04150 whole entry, species assumed): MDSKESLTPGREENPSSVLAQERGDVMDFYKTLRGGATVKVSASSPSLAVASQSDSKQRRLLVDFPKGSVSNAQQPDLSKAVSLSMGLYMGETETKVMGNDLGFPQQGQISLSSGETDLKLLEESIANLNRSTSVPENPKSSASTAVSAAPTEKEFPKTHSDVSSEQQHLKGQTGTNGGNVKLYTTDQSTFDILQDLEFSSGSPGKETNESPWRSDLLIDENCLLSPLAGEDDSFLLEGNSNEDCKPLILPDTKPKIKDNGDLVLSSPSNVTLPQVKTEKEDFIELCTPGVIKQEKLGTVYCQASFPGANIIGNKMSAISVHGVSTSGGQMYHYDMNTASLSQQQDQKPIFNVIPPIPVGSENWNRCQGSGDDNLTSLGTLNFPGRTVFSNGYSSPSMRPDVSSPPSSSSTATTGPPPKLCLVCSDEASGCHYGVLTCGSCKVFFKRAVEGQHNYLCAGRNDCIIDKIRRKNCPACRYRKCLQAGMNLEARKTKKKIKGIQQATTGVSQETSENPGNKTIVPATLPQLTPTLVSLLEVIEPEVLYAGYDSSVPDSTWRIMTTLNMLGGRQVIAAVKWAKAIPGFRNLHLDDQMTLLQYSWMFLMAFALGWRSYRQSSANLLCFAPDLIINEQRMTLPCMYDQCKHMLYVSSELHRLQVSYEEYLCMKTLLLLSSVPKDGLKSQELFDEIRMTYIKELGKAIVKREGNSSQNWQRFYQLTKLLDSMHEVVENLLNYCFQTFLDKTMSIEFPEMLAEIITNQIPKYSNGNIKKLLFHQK
Please respond with just the number, no unit label.

[[record]]
compound = "C#C[C@@]1(O)CC[C@@H]2[C@@H]3CCC4=CC(=O)CC[C@@]4(C)[C@H]3CC[C@]21C [NCGC00016444-01]"
measured_target = "glucocorticoid receptor (GR) (Homo sapiens, UniProt P04150)"
observation_type = "qHTS Hill Slope"
test_value = 0.97

[[record]]
compound = "CCC(=O)O[C@]1(C(=O)SCF)[C@H](C)C[C@H]2[C@@H]3C[C@H](F)C4=CC(=O)C=C[C@]4(C)[C@@]3(F)[C@@H](O)C[C@@]21C [NCGC00016943-01]"
measured_target = "glucocorticoid receptor (GR) (Homo sapiens, UniProt P04150)"
observation_type = "qHTS Hill Slope"
test_value = 1.50

[[record]]
compound = "CC(=O)[C@H]1CC[C@H]2[C@@H]3C[C@H](C)C4=CC(=O)CC[C@]4(C)[C@H]3[C@@H](O)C[C@]12C [NCGC00016616-01]"
measured_target = "glucocorticoid receptor (GR) (Homo sapiens, UniProt P04150)"
observation_type = "qHTS Hill Slope"
test_value = 0.13


Need qHTS Hill Slope, item C[C@]12C=CC(=O)C=C1CC[C@@H]1[C@H]3C[C@@H](O)[C@](O)(C(=O)CO)[C@@]3(C)C[C@H](O)[C@]12F [NCGC00016376-01]
1.15

Need qHTS Hill Slope, item CC(=O)O[C@]1(C(C)=O)CC[C@H]2[C@@H]3C=C(C)C4=CC(=O)CC[C@]4(C)[C@H]3CC[C@@]21C [NCGC00016516-01]
0.49

Need qHTS Hill Slope, item C[C@@H]1C[C@@H]2[C@H]3CCC4=CC(=O)C=C[C@]4(C)[C@]3(Cl)[C@@H](O)C[C@@]2(C)[C@@]1(O)C(=O)CO [NCGC00015136-01]
0.67

---

Reported qHTS Max Activity values follow for various compounds
target: glucocorticoid receptor (GR) (Homo sapiens); test: GR-EFC nuclear translocation assay; assay type: cell-based; conditions: maximal activity of the qHTS curve; inactive threshold […] (3σ)
Please respond with just the number, no unit label.

Need qHTS Max Activity, item CC(=O)[C@H]1CC[C@H]2[C@@H]3C[C@H](C)C4=CC(=O)CC[C@]4(C)[C@H]3[C@@H](O)C[C@]12C [NCGC00016616-01]
100.0

Need qHTS Max Activity, item CCC(=O)O[C@]1(C(=O)SCF)[C@H](C)C[C@H]2[C@@H]3C[C@H](F)C4=CC(=O)C=C[C@]4(C)[C@@]3(F)[C@@H](O)C[C@@]21C [NCGC00016943-01]
115.3

Need qHTS Max Activity, item CC(=O)OCC(=O)[C@@]1(OC(C)=O)[C@H](C)C[C@H]2[C@@H]3C[C@H](F)C4=CC(=O)C=C[C@@]4(C)[C@]3(F)[C@H](O)C[C@@]21C [NCGC00016822-01]
80.7

---

target: glucocorticoid receptor (GR) (Homo sapiens); test: GR-EFC nuclear translocation assay; format: cell-based
Reported EC50 values follow for various molecules
Give a bare numeral; the unit nM is implied.

[[record]]
molecule = "C[C@]12C[C@H](O)[C@H]3[C@@H](CCC4=CC(=O)CC[C@@]43C)[C@@H]1CC[C@@H]2C(=O)CO [Corticosterone, reference compound]"
observation_type = "EC50"
test_value = 36


Proceeding to the next molecule to report its EC50.
Need EC50, item CC(=O)C1(O)CCC2C3CCC4=CC(=O)CCC4(C)C3CCC21C (stereo not drawn) [17α-hydroxyprogesterone, reference compound]
2870

---

molecular target: glucocorticoid receptor (GR) (Homo sapiens, UniProt P04150); assay: GR-EFC nuclear translocation assay; type: cell-based; settings: log10 of qEC50 in M, printed as negative values; class 4 values are fit defaults
observation_type: log qEC50
Please respond with just the number, no unit label.

Examples from the recorded data:
[[record]]
smiles_notation = "CC(=O)[C@@]1(O)CC[C@H]2[C@@H]3C[C@H](C)C4=CC(=O)C=C[C@]4(C)[C@@]3(F)[C@@H](O)C[C@@]21C"
test_value = "−8.086"

[[record]]
smiles_notation = "C[C@]12C=CC(=O)C=C1CC[C@@H]1[C@H]3C[C@@H](O)[C@](O)(C(=O)CO)[C@]3(C)C[C@H](O)[C@]12F"
test_value = "−6.563"

[[record]]
smiles_notation = "CC(=O)OCC(=O)[C@@]1(O)CC[C@H]2[C@@H]3CCC4=CC(=O)C=C[C@]4(C)[C@@]3(F)[C@@H](O)C[C@@]21C"
test_value = "−7.456"

[[record]]
smiles_notation = "C[C@@]12CCC(=O)C=C1CC[C@H]1[C@H]3CC[C@](O)(C(=O)CO)[C@]3(C)CC[C@@H]12"
test_value = "−6.363"

[[record]]
smiles_notation = "CCOC(=O)O[C@]1(C(=O)COC(=O)CC)CC[C@H]2[C@@H]3CCC4=CC(=O)C=C[C@]4(C)[C@H]3[C@@H](O)C[C@@]21C"
test_value = "−8.025"


Proceeding to the next compound to report its log qEC50.
Need log qEC50, item `CC1(C)O[C@@H]2C[C@H]3[C@@H]4C[C@H](F)C5=CC(=O)C=C[C@]5(C)[C@H]4[C@@H](O)C[C@]3(C)[C@]2(C(=O)CO)O1`
−8.315

---

molecular target: glucocorticoid receptor (GR) (Homo sapiens, UniProt P04150); assay: GR-EFC nuclear translocation assay; type: cell-based; settings: read-out: qEC50
pEC50: −log10 of the molar value.
Reported pEC50 values follow for various compounds

[[record]]
compound = "CC1(C)CC[C@]2(C(=O)O)CC[C@]3(C)C(=CC[C@@H]4[C@@]5(C)CC[C@H](O)C(C)(C)[C@@H]5CC[C@@]43C)[C@@H]2C1 [NCGC00017222-01]"
test_value = "< 5.05"

[[record]]
compound = "C#C[C@]1(O)CC[C@@H]2[C@H]3CCC4=Cc5oncc5C[C@]4(C)[C@@H]3CC[C@@]21C [NCGC00016726-01]"
test_value = "< 5.05"


Proceeding to the next compound to report its pEC50.
Need pEC50, item C[C@@]12C=CC(=O)C=C1CC[C@@H]1C2=CC[C@]2(C)[C@@H]1CC[C@H]2C(=O)CN1CCN(c2cc(N3CCCC3)nc(N3CCCC3)n2)CC1 [NCGC00016076-01]
< 5.05

---

biological target: glucocorticoid receptor (GR) (Homo sapiens, UniProt P04150); assay: GR-EFC nuclear translocation assay; assay type: cell-based; settings: log10 of qEC50 in M, printed as negative values; class 4 values are fit defaults
Reported log qEC50 values follow for various compounds

[[record]]
compound = "C[C@@]12CCC(=O)C=C1CC[C@@H]1[C@@H]2[C@H](O)C[C@]2(C)[C@@H]1CC[C@]2(O)C(=O)COC(=O)CCC(=O)[O-].[Na+] [NCGC00016153-01]"
observation_type = "log qEC50"
test_value = "−5.952"


Need log qEC50, item CCC(=O)[C@@]1(C)[C@H](C)C[C@H]2[C@@H]3CCC4=CC(=O)C=C[C@]4(C)[C@H]3[C@@H](O)C[C@@]21C [NCGC00016856-01]
−8.507

Need log qEC50, item CC(=O)OCC(=O)[C@@]12OC(C)(C)O[C@@H]1C[C@H]1[C@@H]3C[C@H](F)C4=CC(=O)C=C[C@]4(C)[C@@]3(F)[C@@H](O)C[C@@]12C [NCGC00016436-01]
−7.893

Need log qEC50, item CC1(C)O[C@@H]2C[C@H]3[C@@H]4C[C@H](F)C5=CC(=O)CC[C@]5(C)[C@H]4[C@@H](O)C[C@]3(C)[C@]2(C(=O)CO)O1 [NCGC00016586-01]
−7.725

Need log qEC50, item C[C@@]12C[C@@H](O)[C@H]3[C@@H](CCC4=CC(=O)CC[C@]43C)[C@H]1CC[C@H]2C(=O)CO [NCGC00015222-01]
−6.747

Need log qEC50, item CC(=O)[C@H]1CC[C@H]2[C@@H]3C[C@H](C)C4=CC(=O)CC[C@]4(C)[C@H]3[C@@H](O)C[C@]12C [NCGC00016616-01]
−5.381
